test system: P12-Ichikawa; experiment: cell viability relative to DMSO control; higher = less cytotoxic; conditions: RPMI 5 mM glucose + 10% dialyzed FBS; 48 h; 0.0632 µM
observed property: cell viability (%)

CC(C)OC(=O)/C1=C/N(CC(C)(C)C2=C1[NH]C3=CC=CC=C23)C(=O)C4=CC=C(F)C(=C4)F	78.5
CC(C)C1NC(=O)C(NC(=O)C2=C3\N=C\4/C(=C(C)\C(=O)\C(=C4C(=O)NC5C(C)OC(=O)C(C(C)C)N(C)C(=O)CN(C)C(=O)C6CCCN6C(=O)C(NC5=O)C(C)C)N)OC3=C(C)C=C2)C(C)OC(=O)C(C(C)C)N(C)C(=O)CN(C)C(=O)C7CCCN7C1=O (stereo not given)	7.89
CC(C)(O)CC[C@@H](O)[C@](C)(O)[C@H]1CC[C@@]2(O)C/3=C/C(=O)[C@@H]4C[C@@H](O)[C@@H](O)C[C@]4(C)[C@H]3CC[C@]12C	94.6
CCOC(=O)[C@@H](N)Cc1ccc(-c2cc(O[C@H](c3ccc(Cl)cc3-n3ccc(C)n3)C(F)(F)F)nc(N)n2)cc1.O=C(O)CNC(=O)c1ccccc1	102
CC1CNc2c(cccc2[S+](=O)([O-])N[C@@H](CCCNC(=N)N)C(=O)N2CC[C@@H](C)C[C@@H]2C(=O)O)C1 (stereo not given in full)	111
CCOC(=O)N1CCN(/[N+]([O-])=N/Oc2ccc([N+](=O)[O-])cc2C#N)CC1	113
CCN1CCN(c2ccc(Nc3cc(N(C)C(=O)Nc4c(Cl)c(OC)cc(OC)c4Cl)ncn3)cc2)CC1	114
CC(C)c1noc(N2CCC(COc3ccc(-c4ccc([S+](C)(=O)[O-])cc4)nc3)CC2)n1	114
CC1=C(C)C(=O)C(C(CCCCCC(=O)O)c2ccccc2)=C(C)C1=O (stereo not given)	84.4
O=C1NC(=O)/C(=C/c2ccc3nccc(-c4ccncc4)c3c2)S1	98.8
NNCCc1ccccc1	123
O=C(O)C1(Cc2cccc(Nc3nccs3)n2)CCC(Oc2cccc(Cl)c2F)CC1 (stereo not given)	116
C[C@](O)(CS(=O)(=O)c1ccc(F)cc1)C(=O)Nc1ccc(C#N)c(C(F)(F)F)c1	122
Clc1ccc(-c2nc3sccn3c2/C=N/OCc2ccc(Cl)c(Cl)c2)cc1	110
C[C@@]12C(=O)OC(=O)[C@@]1(C)C1CCC2O1	105
